Measured IC50 of individual entries
tested-system: purified human Hsp90
experiment-notes: Binding Assay: fluorescence polarization with BODIPY-labeled geldanamycin
stated-conditions: BODIPY-GM 10 nM, Hsp90 30 nM

Item: COc1ccc(C#N)cc1Sc1nc2c(N)ncnc2n1CCc1ccccc1Cl Test system: purified human Hsp90 Read-out: IC50 Value: ? > 25 µM

Lab request: please report IC50 under test system purified human Hsp90 for CC(C)(C)NC(=O)N1CCC(CCn2c(Sc3cc4c(cc3Br)OCO4)nc3c(N)ncnc32)CC1 0.125 µM

Notebook entry, purified human Hsp90 assay: IC50 of Nc1ncnc2c1nc(Sc1cc(OCc3ccccc3)c(OCc3ccccc3)cc1Br)n2CCC1CCN(C=O)CC1 = ? > 5 µM

New cases:
IC50 of COc1ccc(OC)c(Sc2nc3c(N)ncnc3n2CCc2c(F)c(F)c(F)c(F)c2F)c1 on purified human Hsp90? > 3 µM
